Test system: MV4-11
Assay comment: Anti-leukemic activity against human MV4-11 cells assessed as cell dead after 24 to 48 hrs by annexin V-FITC/7-AAD staining-based flow cytometric analysis
Assay type: functional
Run parameters: read-out: LD50 (the source's name)
Just a reminder that ties go to F: only CC50 strictly below 0.2 µM counts as T.

COc1cc(/C(C#N)=C/c2cc3ccccc3n2Cc2ccc(C#N)cc2)cc(OC)c1OC ... F
COc1cc(/C(C#N)=C/c2nc3ccccc3s2)cc(OC)c1OC ... F
COc1cc(/C(C#N)=C/c2csc3ccccc23)cc(OC)c1OC ... T
COc1ccc(/C(C#N)=C/c2nc3ccccc3s2)cc1OC ... F

API: query returns whether the compound falls strictly under 0.2 µM in CC50. Query: `COc1cc(/C(C#N)=C/c2cc3ccccc3s2)cc(OC)c1OC`
T

API: query returns whether the compound falls strictly under 0.2 µM in CC50. Query: `COc1cc(OC)cc(/C(C#N)=C/c2c[nH]c3ccccc23)c1`
F

====

Test system: SF-268
Assay comment: Cytotoxicity against human SF268 cells assessed as growth inhibition after 48 hrs by SRB assay
Type: functional
Run parameters: SF-268, 48 h
Just a reminder that ties go to 0 (no): only GI50 strictly below 0.2 µM counts as 1 (yes).

Reference set (5 entries):
COc1cc(/C(C#N)=C/c2cc3ccccc3o2)cc(OC)c1OC ... 0 (no)
COc1cc(/C(C#N)=C/c2c[nH]c3ccccc23)cc(OC)c1OC ... 0 (no)
COc1ccc(/C(C#N)=C/c2c[nH]c3ccccc23)cc1OC ... 0 (no)
COc1cc(/C(C#N)=C/c2cc3ccccc3[nH]2)cc(OC)c1OC ... 1 (yes)
COc1cc(OC)cc(/C(C#N)=C/c2c[nH]c3ccccc23)c1 ... 1 (yes)

Next compound, please.
API: query returns whether the compound falls strictly under 0.2 µM in GI50. Query: `COc1cc(OC)cc(/C(C#N)=C/c2nc3ccccc3s2)c1`
0 (no)

====

Assay comment: Cytotoxicity against human HCT116 cells assessed as growth inhibition after 48 hrs by SRB assay
Type: functional
Run parameters: HCT-116, 48 h
Measurement label: GI50 (nM)
Numeric only. Scale: nM

Example molecules with recorded GI50:
COc1cc(/C(C#N)=C/c2nc3ccccc3s2)cc(OC)c1OC ... 52
COc1ccc2[nH]cc(/C=C(\C#N)c3cc(OC)c(OC)c(OC)c3)c2c1 ... 45

Give the measured GI50 of `COc1cc(/C(C#N)=C/c2c[nH]c3ccccc23)cc(OC)c1OC` .
48

Give the measured GI50 of `COc1cc(OC)cc(/C(C#N)=C/c2nc3ccccc3s2)c1` .
404

Give the measured GI50 of `COc1cc(/C(C#N)=C/c2cc3ccccc3n2Cc2ccc(C#N)cc2)cc(OC)c1OC` .
47

====

Tested on: A498
Assay comment: Cytotoxicity against human A498 cells assessed as growth inhibition after 48 hrs by SRB assay
Type: functional
Run parameters: A498, 48 h
GI50 reference
Numeric only. Scale: nM

COc1cc(/C(C#N)=C/c2c[nH]c3ccccc23)cc(OC)c1OC ... 35
COc1ccc(/C(C#N)=C/c2c[nH]c3ccccc23)cc1OC ... 3360
COc1cc(OC)cc(/C(C#N)=C/c2c[nH]c3ccccc23)c1 ... 35
COc1cc(/C(C#N)=C/c2cc3ccccc3n2Cc2ccc(C#N)cc2)cc(OC)c1OC ... 29
COc1cc(OC)cc(/C(C#N)=C/c2nc3ccccc3s2)c1 ... 417

Give the measured GI50 of `COc1cc(/C(C#N)=C/c2nc3ccccc3s2)cc(OC)c1OC` .
198

Give the measured GI50 of `COc1ccc(/C(C#N)=C/c2cc3ccccc3o2)cc1OC` .
540

Give the measured GI50 of `COc1cc(/C(C#N)=C/c2coc3ccccc23)cc(OC)c1OC` .
458

Give the measured GI50 of `COc1ccc(/C(C#N)=C/c2cc3ccccc3[nH]2)cc1OC` .
40

Give the measured GI50 of `COc1ccc2[nH]cc(/C=C(\C#N)c3cc(OC)c(OC)c(OC)c3)c2c1` .
25
